biological target: KRas G12D (Homo sapiens (Human), UniProt P01116, G12D); assay: KRas G12D Surface Plasmon Resonance (SPR) Binding Assay; settings: Biacore T200, immobilized biotinylated KRAS protein, 1:1 binding model
Sequence (P01116-2 other isoform, or with tags, fused parts or gaps G12D): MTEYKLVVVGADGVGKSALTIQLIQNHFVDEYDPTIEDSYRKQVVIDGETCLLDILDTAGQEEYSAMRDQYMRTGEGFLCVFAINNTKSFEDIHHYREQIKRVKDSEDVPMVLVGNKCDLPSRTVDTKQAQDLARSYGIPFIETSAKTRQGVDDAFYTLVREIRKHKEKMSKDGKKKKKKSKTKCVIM
pKd: −log10 of the molar value.
Catalogue of molecules with associated pKd
MEASUREMENT KIND: pKd

[[record]]
molecule = "[O-][S+]1CCC(Oc2nc(N3C[C@H]4CC[C@@H](C3)N4)c3cnc(-c4cc(O)cc5ccccc45)c(F)c3n2)CC1 (stereo partly shown)"
measurement_kind = "pKd"
censoring_qualifier = "="
recorded_result = 6.67

[[record]]
molecule = "CC(C)n1ccnc1CCOc1nc(N2C[C@H]3CC[C@@H](C2)N3)c2cnc(-c3cc(O)cc4ccccc34)c(F)c2n1"
measurement_kind = "pKd"
censoring_qualifier = "="
recorded_result = 7.59

[[record]]
molecule = "CN1CCC[C@H]1COc1nc(N2C[C@H]3CC[C@@H](C2)N3)c2cnc(-c3cccc4ccc(F)cc34)c(F)c2n1"
measurement_kind = "pKd"
censoring_qualifier = "="
recorded_result = 6.18

[[record]]
molecule = "OCC(COc1nc(N2C[C@H]3CC[C@@H](C2)N3)c2cnc(-c3cccc4cccc(Cl)c34)c(F)c2n1)c1cccnc1 (stereo partly shown)"
measurement_kind = "pKd"
censoring_qualifier = "="
recorded_result = 5.95

[[record]]
molecule = "Cc1cccc2cccc(-c3ncc4c(N5C[C@H]6CC[C@@H](C5)N6)nc(OCCc5nccn5C)nc4c3F)c12"
measurement_kind = "pKd"
censoring_qualifier = "="
recorded_result = 5.96

[[record]]
molecule = "Oc1cc(-c2ncc3c(N4C[C@H]5CC[C@@H](C4)N5)nc(OCc4ccccn4)nc3c2F)c2ccccc2c1"
measurement_kind = "pKd"
censoring_qualifier = "="
recorded_result = 5.37

[[record]]
molecule = "Oc1cc(-c2ncc3c(N4C[C@H]5CC[C@@H](C4)N5)nc(OC4CCSCC4)nc3c2F)c2ccccc2c1"
measurement_kind = "pKd"
censoring_qualifier = "<"
recorded_result = 3.00

[[record]]
molecule = "CN1CCC[C@H]1COc1nc(N2CC3CCC(CCC#N)(C2)N3)c2cnc(-c3cc(O)cc4ccccc34)c(F)c2n1 (stereo partly shown) [Example 157, bis(2,2,2-trifluoroacetate)]"
measurement_kind = "pKd"
censoring_qualifier = "="
recorded_result = 7.64

[[record]]
molecule = "CCC1(N)CN(c2nc(N3C[C@H]4CC[C@@H](C3)N4)c3cnc(-c4cc(O)cc5ccccc45)c(F)c3n2)C1"
measurement_kind = "pKd"
censoring_qualifier = "="
recorded_result = 7.79

[[record]]
molecule = "Oc1cc(-c2ncc3c(N4C[C@H]5CC[C@@H](C4)N5)nc(OCCc4cccnc4)nc3c2F)c2ccccc2c1"
measurement_kind = "pKd"
censoring_qualifier = "="
recorded_result = 7.27

[[record]]
molecule = "CN1CCC[C@H]1COc1nc(N2CC3CCC(C)(C2)N3)c2cnc(-c3cc(O)cc4ccccc34)c(F)c2n1 (stereo partly shown) [Example 156, bis(2,2,2-trifluoroacetate)]"
measurement_kind = "pKd"
censoring_qualifier = "="
recorded_result = 3.30

[[record]]
molecule = "Oc1cc(-c2ncc3c(N4C[C@H]5CC[C@@H](C4)N5)nc(OCC(F)(F)F)nc3c2F)c2ccccc2c1"
measurement_kind = "pKd"
censoring_qualifier = "="
recorded_result = 6.03

[[record]]
molecule = "Fc1c(-c2cccc3cccc(Cl)c23)ncc2c(N3C[C@H]4CC[C@@H](C3)N4)nc(OCC34CCCCN3CCC4)nc12 (stereo partly shown)"
measurement_kind = "pKd"
censoring_qualifier = "="
recorded_result = 6.93

